- measurement-description: In vivo GBM rat model: plasma chemistry
- Set-up: unit not given here
- reported-conditions: GBM rats, 30 mg/kg oral, 5 days, plasma at necropsy
Reported CREA. values for the following compounds.
measurement-type: CREA.

[[record]]
record_smiles = "C=Cc1ccc(COc2ccc3c(c2)CCC(=O)N3)cc1"
obs_value = 0.34

[[record]]
record_smiles = "C=CCOC(=O)COc1ccc2c(c1)CCC(=O)N2"
obs_value = 0.34

[[record]]
record_smiles = "O=C(COc1ccc2c(c1)CCC(=O)N2)N/N=C/c1cnc(-c2ccc(Cl)cc2)nc1"
obs_value = 0.38

[[record]]
record_smiles = "COc1cc(NC(=O)COc2ccc3c(c2)CCC(=O)N3)cc(OC)c1"
obs_value = 0.29

[[record]]
record_smiles = "CC(C)CCOc1ccc2c(c1)CCC(=O)N2"
obs_value = 0.31

[[record]]
record_smiles = "O=C1CCc2cc(OS(=O)(=O)c3cccc4ccccc34)ccc2N1"
obs_value = 0.35


* * *

Readings of HGB for the listed compounds
- measurement-description: In vivo GBM rat model: haematology
- reported-conditions: GBM rats, 30 mg/kg oral, 5 days, blood at necropsy
measurement-type: HGB (g/dL)

[[record]]
compound = "C=Cc1ccc(COc2ccc3c(c2)CCC(=O)N3)cc1"
obs_value = 14.67

[[record]]
compound = "CC(C)CCOc1ccc2c(c1)CCC(=O)N2"
obs_value = 14.88

[[record]]
compound = "C=CCOC(=O)COc1ccc2c(c1)CCC(=O)N2"
obs_value = 14.15

[[record]]
compound = "COc1cc(NC(=O)COc2ccc3c(c2)CCC(=O)N3)cc(OC)c1"
obs_value = 13.80

[[record]]
compound = "O=C1CCc2cc(OS(=O)(=O)c3cccc4ccccc34)ccc2N1"
obs_value = 14.12

[[record]]
compound = "Cn1nnc2c(C(N)=O)ncn2c1=O [TMZ, Temozolomide, reference compound]"
obs_value = 15.13

[[record]]
compound = "O=C(COc1ccc2c(c1)CCC(=O)N2)N/N=C/c1cnc(-c2ccc(Cl)cc2)nc1"
obs_value = 15.00


* * *

- measurement-description: Peripheral blood micronucleus assay
- Type: in vivo, Rat
- reported-conditions: GBM rats, 30 mg/kg oral, 5 days, 1000 cells per animal evaluated
measurement-type: MN frequency

[[record]]
compound = "O=C1CCc2cc(OS(=O)(=O)c3cccc4ccccc34)ccc2N1 [TR-G045]"
obs_value = 12.05

[[record]]
compound = "C=CCOC(=O)COc1ccc2c(c1)CCC(=O)N2 [TR-G071]"
obs_value = 12.43

[[record]]
compound = "O=C(COc1ccc2c(c1)CCC(=O)N2)N/N=C/c1cnc(-c2ccc(Cl)cc2)nc1 [TR-G066]"
obs_value = 10.91

[[record]]
compound = "CC(C)CCOc1ccc2c(c1)CCC(=O)N2 [TR-G002]"
obs_value = 11.62

[[record]]
compound = "C=Cc1ccc(COc2ccc3c(c2)CCC(=O)N3)cc1 [TR-G053]"
obs_value = 9.67

[[record]]
compound = "Cn1nnc2c(C(N)=O)ncn2c1=O [TMZ, Temozolomide, reference compound]"
obs_value = 14.32

[[record]]
compound = "COc1cc(NC(=O)COc2ccc3c(c2)CCC(=O)N3)cc(OC)c1 [TR-G091]"
obs_value = 11.65


* * *

- measurement-description: In vivo GBM rat model: haematology
- reported-conditions: GBM rats, 30 mg/kg oral, 5 days, blood at necropsy
measurement-type: MCV (fL)

[[record]]
compound = "C=Cc1ccc(COc2ccc3c(c2)CCC(=O)N3)cc1"
obs_value = 59.33

[[record]]
compound = "Cn1nnc2c(C(N)=O)ncn2c1=O [TMZ, Temozolomide, reference compound]"
obs_value = 57.55

[[record]]
compound = "O=C1CCc2cc(OS(=O)(=O)c3cccc4ccccc34)ccc2N1"
obs_value = 60.48

[[record]]
compound = "CC(C)CCOc1ccc2c(c1)CCC(=O)N2"
obs_value = 59.99

[[record]]
compound = "O=C(COc1ccc2c(c1)CCC(=O)N2)N/N=C/c1cnc(-c2ccc(Cl)cc2)nc1"
obs_value = 59.60

[[record]]
compound = "COc1cc(NC(=O)COc2ccc3c(c2)CCC(=O)N3)cc(OC)c1"
obs_value = 56.95

[[record]]
compound = "C=CCOC(=O)COc1ccc2c(c1)CCC(=O)N2"
obs_value = 58.65

